Data provenance: ChEMBL document CHEMBL4190389

# system under test: D(2) dopamine receptor (Homo sapiens, UniProt P14416)
# Sequence (P14416 whole entry): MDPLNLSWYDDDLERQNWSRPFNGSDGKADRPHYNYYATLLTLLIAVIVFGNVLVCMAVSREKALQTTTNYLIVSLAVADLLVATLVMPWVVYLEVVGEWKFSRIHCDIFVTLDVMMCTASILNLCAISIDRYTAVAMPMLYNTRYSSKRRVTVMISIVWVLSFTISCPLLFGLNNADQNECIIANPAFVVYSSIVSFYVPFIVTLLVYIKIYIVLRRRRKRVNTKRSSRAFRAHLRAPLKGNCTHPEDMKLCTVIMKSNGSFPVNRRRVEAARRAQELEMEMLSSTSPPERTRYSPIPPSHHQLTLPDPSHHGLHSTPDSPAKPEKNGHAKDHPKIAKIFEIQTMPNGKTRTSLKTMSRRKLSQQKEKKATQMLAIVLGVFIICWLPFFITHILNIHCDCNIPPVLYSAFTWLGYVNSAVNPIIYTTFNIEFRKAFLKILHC
# experiment notes: Binding affinity to D2 receptor (unknown origin)
attribute measured: Ki (nM)
Please reply with the bare figure in nM and do not write the unit itself.

Data request: # input compound: OCCOCCN1CCN(C(c2ccccc2)c2ccc(Cl)cc2)CC1 (stereo unspecified) [HYDROXYZINE] ; wanted: its Ki
Data returned: 378

====

Kindly supply the reported Emax values for the records listed here.
# system under test: 5-hydroxytryptamine receptor 7 (Homo sapiens, UniProt P34969)
# Sequence (P34969 whole entry): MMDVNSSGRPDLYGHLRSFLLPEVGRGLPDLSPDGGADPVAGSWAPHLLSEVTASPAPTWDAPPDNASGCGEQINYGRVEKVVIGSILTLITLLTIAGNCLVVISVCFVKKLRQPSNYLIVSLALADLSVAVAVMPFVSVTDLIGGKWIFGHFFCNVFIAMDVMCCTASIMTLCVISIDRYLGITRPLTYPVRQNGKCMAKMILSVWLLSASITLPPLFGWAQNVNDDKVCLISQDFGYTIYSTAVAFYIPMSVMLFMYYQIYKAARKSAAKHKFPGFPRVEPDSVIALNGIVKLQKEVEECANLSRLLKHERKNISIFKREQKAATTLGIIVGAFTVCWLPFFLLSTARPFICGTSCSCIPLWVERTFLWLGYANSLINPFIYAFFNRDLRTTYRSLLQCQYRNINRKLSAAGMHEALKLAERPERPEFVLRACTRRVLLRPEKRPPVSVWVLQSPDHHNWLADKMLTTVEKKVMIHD
# experiment notes: Antagonist activity at human 5-HT7 receptor expressed in CHO-K1 cells assessed as decrease in serotonin-induced cAMP level after 1 hr by TR-FRET assay relative to control
# Type: functional, cell-based
Please give a number only; it is taken to be in %.

Data request: Suppose we examine the molecule CC1CCN(CC[C@H]2CCCN2S(=O)(=O)c2cccc(O)c2)CC1 ; what Emax value has been reported?
Data returned: -1

Data request: Can you look up the measured Emax of COc1ccccc1N1CCN(CCOCCOc2c(C)cc(C)cc2C)CC1.Cl.Cl for me?
Data returned: 3

Data request: Can you look up the measured Emax of COc1ccccc1N1CCN(CCCOc2ccc(C)cc2C)CC1.Cl for me?
Data returned: 5

Data request: Quick one: Emax for COc1ccccc1N1CCN(CCOCCOc2cc(C)cc(C)c2C)CC1.Cl.Cl ?
Data returned: 11

Data request: What Emax value was documented for this molecule, Cc1cc(OCCCN2CCN(c3ccccc3)CC2)ccc1Cl.Cl.Cl ?
Data returned: 15

====

# system under test: 5-hydroxytryptamine receptor 2A (Homo sapiens, UniProt P28223)
# Sequence (P28223 whole entry): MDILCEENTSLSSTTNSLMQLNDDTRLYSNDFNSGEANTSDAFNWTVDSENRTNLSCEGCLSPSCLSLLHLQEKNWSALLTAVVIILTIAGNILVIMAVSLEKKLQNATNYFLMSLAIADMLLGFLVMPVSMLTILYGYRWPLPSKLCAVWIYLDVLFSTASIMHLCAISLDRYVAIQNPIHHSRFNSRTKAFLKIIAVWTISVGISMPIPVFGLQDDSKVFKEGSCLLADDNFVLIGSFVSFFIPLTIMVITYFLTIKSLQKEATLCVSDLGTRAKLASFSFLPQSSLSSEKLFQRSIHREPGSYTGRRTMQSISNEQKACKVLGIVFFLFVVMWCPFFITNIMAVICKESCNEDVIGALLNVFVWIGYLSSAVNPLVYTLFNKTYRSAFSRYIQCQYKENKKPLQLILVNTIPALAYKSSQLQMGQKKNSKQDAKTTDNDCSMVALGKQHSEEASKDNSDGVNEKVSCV
# experiment notes: Agonist activity at human 5-HT2A receptor expressed in CHO-K1 cells co-expressing Galpha16 assessed as increase in calcium mobilization measured for 30 secs by aequorin-derived luminescence assay
attribute measured: pEC50
# pEC50 is unitless: minus log10 of the molar concentration; print number only

Data request: So what's the measured pEC50 for this one? CC(N)Cc1c[nH]c2ccc(O)cc12 (stereo unspecified)
Data returned: 8.70

====

# system under test: 5-hydroxytryptamine receptor 7 (Homo sapiens, UniProt P34969)
# experiment notes: biochemical
# Format: cell-based, CHO
# Description: Displacement of [3H]LSD from recombinant human 5-HT7 receptor expressed in CHO cells cell membranes after 60 mins by liquid scintillation counting method
pKi: −log10 of the molar value.
Decide by pKi: equal to or exceeding 6 means criterion met, less means criterion not met.

Data request: Hello, I need to know if COc1ccccc1N1CCN(CCCOc2ccc(C)cc2C)CC1.Cl has measured pKi not below 6. Thanks!
Data returned: criterion met

Data request: Please indicate if the recorded pKi for COc1ccccc1N1CCN(CCOCCOc2cc(C)cc(C)c2C)CC1.Cl.Cl meets or exceeds 6.
Data returned: criterion met

Data request: Would you say Cc1cccc(OCCOCCN2CCN(CCc3ccccc3)CC2)c1C.Cl.Cl shows pKi at minimum 6?
Data returned: criterion met

Data request: Threshold query (pKi >= 6) on Cc1cc(C)c(C)c(OCCOCCN2CCN(CCO)CC2)c1.Cl.Cl
Data returned: criterion not met

Data request: Determine whether measured pKi meets or exceeds 6 for COc1ccccc1N1CCN(CCOCCOc2c(C)cc(C)cc2C)CC1.Cl.Cl
Data returned: criterion met

Data request: Is pKi for Cc1cc(OCCCN2CCN(c3ccccc3)CC2)ccc1Cl.Cl.Cl at or above 6?
Data returned: criterion met

Data request: Does Cc1cc(C)c(OCCOCCN2CCN(Cc3ccccc3)CC2)c(C)c1.Cl.Cl have a reported pKi of at least 6?
Data returned: criterion not met

Data request: Would you say COc1ccc(N2CCN(CCCOc3c(C)cc(C)cc3C)CC2)cc1.Cl.Cl shows pKi at minimum 6?
Data returned: criterion not met
